Cited source: the antibiotic and cytotoxicity screens of Wong et al. (2023)

System: HepG2
Experiment: cytotoxicity call (relative viability < 0.9)
Conditions: 10 µM
Hit rate of the full screen: of about 39,000 compounds, about 3,300 (8.5%) were called active. Many of the other results were omitted from the sample, so actives are more common in it than they were.
Metric name: cytotoxicity call

Example cases with answers are listed next.
Test smiles | cytotoxicity call
C[C@H]1CCCCO[C@H](CN(C)CC2CCCCC2)[C@@H](C)CN([C@@H](C)CO)C(=O)c2cc(NC(=O)Nc3ccccc3)ccc2O1 | inactive
C[C@@H]1CCCCO[C@@H](CN(C)CC2CCCCC2)[C@H](C)CN([C@@H](C)CO)C(=O)c2cc(NC(=O)Nc3ccccc3)ccc2O1 | inactive
C[C@@H]1CN([C@@H](C)CO)C(=O)c2cc(NS(=O)(=O)c3ccc(Cl)cc3)ccc2O[C@H]1CN(C)Cc1ccc(Oc2ccccc2)cc1 | inactive
C[C@@H]1CN([C@H](C)CO)C(=O)c2cc(NC(=O)Nc3ccccc3)ccc2O[C@@H](C)CCCCO[C@@H]1CN(C)CC1CCCCC1 | inactive
C[C@@H]1CN([C@H](C)CO)C(=O)c2cc(NS(=O)(=O)c3ccc(Cl)cc3)ccc2O[C@@H]1CN(C)Cc1ccc(Oc2ccccc2)cc1 | active
C[C@@H]1CN([C@H](C)CO)C(=O)c2cc(NS(=O)(=O)c3ccc(Cl)cc3)ccc2O[C@H]1CN(C)Cc1ccc(Oc2ccccc2)cc1 | active

Next molecule, please.
Param item: "C[C@H](CO)N1C[C@H](C)[C@H](CN(C)Cc2ccc(Oc3ccccc3)cc2)Oc2ccc(NS(=O)(=O)c3ccc(Cl)cc3)cc2C1=O" ; param system: HepG2; output cytotoxicity call: inactive

---

Test system: HepG2
Assay: cytotoxicity call (relative viability < 0.9)
Conditions: 10 µM
Out of some 39,000 compounds screened, about 3,300 (8.5%) were called active. This excerpt belongs to a sample that is enriched for actives.
Your response should consist of one outcome taken from True for active, False for inactive

Could you please tell me the result logged for "COc1ccc(S(=O)(=O)N(C)C[C@H]2Oc3ccc(NC(=O)Cc4ccccc4)cc3CC(=O)N([C@H](C)CO)C[C@@H]2C)cc1" in this assay? False

Could you please tell me the result logged for "Cc1noc(C)c1S(=O)(=O)Nc1ccc2c(c1)CC(=O)N([C@@H](C)CO)C[C@@H](C)[C@H](CN(C)S(=O)(=O)c1ccc(Cl)cc1)O2" in this assay? True

Could you please tell me the result logged for "C[C@@H]1CCCCO[C@@H](CN(C)Cc2ccc(C(F)(F)F)cc2)[C@H](C)CN([C@@H](C)CO)C(=O)c2cc(NC(=O)Nc3ccc(C(F)(F)F)cc3)ccc2O1" in this assay? False

Could you please tell me the result logged for "COc1ccc(S(=O)(=O)N(C)C[C@@H]2Oc3ccc(NC(=O)Cc4ccccc4)cc3CC(=O)N([C@@H](C)CO)C[C@H]2C)cc1" in this assay? False

Could you please tell me the result logged for "C[C@@H]1CCCCO[C@H](CN(C)Cc2ccc(C(F)(F)F)cc2)[C@@H](C)CN([C@@H](C)CO)C(=O)c2cc(NC(=O)Nc3ccc(C(F)(F)F)cc3)ccc2O1" in this assay? False

Could you please tell me the result logged for "COc1ccc(S(=O)(=O)Nc2ccc3c(c2)CC(=O)N([C@@H](C)CO)C[C@H](C)[C@@H](CN(C)S(=O)(=O)c2ccccc2)O3)cc1" in this assay? False
